Conditions: in n-pentane, 298.15 K

| Input Smiles | solubility (mole fraction) |
| --- | --- |
| COc1ccc2c(c1)c(CC(=O)O)c(C)n2C(=O)c1ccc(Cl)cc1 | 3.31e-07 |

----------
Conditions: in methanol, 298.15 K

| Input Smiles | solubility (mole fraction) |
| --- | --- |
| COc1ccc2c(c1)c(CC(=O)O)c(C)n2C(=O)c1ccc(Cl)cc1 | 0.00228 |

----------
Conditions: in isopropanol, 298.15 K
Readout Kind: solubility (mole fraction)

| Input Smiles | Readout Kind | Reported Measurement |
| --- | --- | --- |
| COc1ccc2c(c1)c(CC(=O)O)c(C)n2C(=O)c1ccc(Cl)cc1 | solubility (mole fraction) | 0.00465 |

----------
Conditions: in ethanol, 298.15 K
Each item that follows carries a reported solubility (mole fraction).

| Input Smiles | solubility (mole fraction) |
| --- | --- |
| O=C(O)c1cccnc1Nc1cccc(C(F)(F)F)c1 | 0.0138 |
| COc1ccc2c(c1)c(CC(=O)O)c(C)n2C(=O)c1ccc(Cl)cc1 | 0.00441 |
| c1ccc(N(c2ccc(-c3ccc(N(c4ccccc4)c4cccc5ccccc45)cc3)cc2)c2cccc3ccccc23)cc1 | 5.59e-07 |
| c1cc2cccc3c4cccc5cccc(c(c1)c23)c54 | 2.42e-05 |
| c1ccc2cc3cc4ccccc4cc3cc2c1 | 6.91e-06 |
| c1ccc2cc3ccccc3cc2c1 | 0.000428 |
| c1ccc2c(c1)c1ccccc1n2-c1ccc(-c2ccc(-n3c4ccccc4c4ccccc43)cc2)cc1 | 2.25e-06 |

----------
Conditions: in chlorobenzene, 298.15 K

| Input Smiles | solubility (mole fraction) |
| --- | --- |
| c1ccc(N(c2ccc(-c3ccc(N(c4ccccc4)c4cccc5ccccc45)cc3)cc2)c2cccc3ccccc23)cc1 | 0.00131 |
| c1ccc2cc3ccccc3cc2c1 | 0.00946 |
| O=C(O)c1cccnc1Nc1cccc(C(F)(F)F)c1 | 0.000297 |
| COc1ccc2c(c1)c(CC(=O)O)c(C)n2C(=O)c1ccc(Cl)cc1 | 0.0023 |
| c1cc2cccc3c4cccc5cccc(c(c1)c23)c54 | 0.00177 |
| c1ccc2cc3cc4ccccc4cc3cc2c1 | 0.00014 |
| c1ccc2c(c1)c1ccccc1n2-c1ccc(-c2ccc(-n3c4ccccc4c4ccccc43)cc2)cc1 | 0.00491 |

----------
Settings: in acetone, 298.15 K
Each item that follows carries a reported solubility (mole fraction).
Readout Kind: solubility (mole fraction)

| Input Smiles | Reported Measurement |
| --- | --- |
| O=C(O)c1cccnc1Nc1cccc(C(F)(F)F)c1 | 0.0288 |
| COc1ccc2c(c1)c(CC(=O)O)c(C)n2C(=O)c1ccc(Cl)cc1 | 0.0234 |
| c1ccc(N(c2ccc(-c3ccc(N(c4ccccc4)c4cccc5ccccc45)cc3)cc2)c2cccc3ccccc23)cc1 | 2.11e-05 |
| c1ccc2cc3cc4ccccc4cc3cc2c1 | 3.27e-05 |
| c1ccc2cc3ccccc3cc2c1 | 0.00318 |
| c1ccc2c(c1)c1ccccc1n2-c1ccc(-c2ccc(-n3c4ccccc4c4ccccc43)cc2)cc1 | 0.000153 |
| c1cc2cccc3c4cccc5cccc(c(c1)c23)c54 | 0.000301 |

----------
Conditions: in cyclohexane, 298.15 K

| Input Smiles | solubility (mole fraction) |
| --- | --- |
| COc1ccc2c(c1)c(CC(=O)O)c(C)n2C(=O)c1ccc(Cl)cc1 | 1.87e-05 |

----------
Details: in n-hexane, 298.15 K
Each item that follows carries a reported solubility (mole fraction).

| Input Smiles | solubility (mole fraction) |
| --- | --- |
| COc1ccc2c(c1)c(CC(=O)O)c(C)n2C(=O)c1ccc(Cl)cc1 | 4.84e-07 |
| c1ccc(N(c2ccc(-c3ccc(N(c4ccccc4)c4cccc5ccccc45)cc3)cc2)c2cccc3ccccc23)cc1 | 3.15e-06 |
| O=C(O)c1cccnc1Nc1cccc(C(F)(F)F)c1 | 5.35e-06 |
| c1ccc2cc3ccccc3cc2c1 | 0.0012 |
| c1ccc2c(c1)c1ccccc1n2-c1ccc(-c2ccc(-n3c4ccccc4c4ccccc43)cc2)cc1 | 9.41e-06 |
| c1ccc2cc3cc4ccccc4cc3cc2c1 | 1.5e-05 |
| c1cc2cccc3c4cccc5cccc(c(c1)c23)c54 | 5.53e-05 |

----------
Conditions: in chloroform, 298.15 K
Readout Kind: solubility (mole fraction)

| Input Smiles | Reported Measurement |
| --- | --- |
| COc1ccc2c(c1)c(CC(=O)O)c(C)n2C(=O)c1ccc(Cl)cc1 | 0.00876 |
| c1cc2cccc3c4cccc5cccc(c(c1)c23)c54 | 0.00134 |
| c1ccc(N(c2ccc(-c3ccc(N(c4ccccc4)c4cccc5ccccc45)cc3)cc2)c2cccc3ccccc23)cc1 | 0.00268 |
| c1ccc2c(c1)c1ccccc1n2-c1ccc(-c2ccc(-n3c4ccccc4c4ccccc43)cc2)cc1 | 0.0083 |
| O=C(O)c1cccnc1Nc1cccc(C(F)(F)F)c1 | 0.00166 |
| c1ccc2cc3cc4ccccc4cc3cc2c1 | 0.000132 |
| c1ccc2cc3ccccc3cc2c1 | 0.00995 |

----------
Conditions: in tetrachloromethane, 298.15 K

| Input Smiles | solubility (mole fraction) |
| --- | --- |
| COc1ccc2c(c1)c(CC(=O)O)c(C)n2C(=O)c1ccc(Cl)cc1 | 4.2e-05 |
| c1ccc2cc3cc4ccccc4cc3cc2c1 | 4.61e-05 |
| c1ccc2c(c1)c1ccccc1n2-c1ccc(-c2ccc(-n3c4ccccc4c4ccccc43)cc2)cc1 | 0.000997 |
| O=C(O)c1cccnc1Nc1cccc(C(F)(F)F)c1 | 7.06e-05 |
| c1ccc(N(c2ccc(-c3ccc(N(c4ccccc4)c4cccc5ccccc45)cc3)cc2)c2cccc3ccccc23)cc1 | 0.000234 |
| c1ccc2cc3ccccc3cc2c1 | 0.00481 |
| c1cc2cccc3c4cccc5cccc(c(c1)c23)c54 | 0.000444 |

----------
Conditions: in ethyl acetate, 298.15 K

| Input Smiles | solubility (mole fraction) |
| --- | --- |
| COc1ccc2c(c1)c(CC(=O)O)c(C)n2C(=O)c1ccc(Cl)cc1 | 0.0111 |

----------
Settings: in toluene, 298.15 K

| Input Smiles | solubility (mole fraction) |
| --- | --- |
| COc1ccc2c(c1)c(CC(=O)O)c(C)n2C(=O)c1ccc(Cl)cc1 | 0.000908 |

----------
Conditions: in ethylene glycol, 298.15 K

| Input Smiles | solubility (mole fraction) |
| --- | --- |
| COc1ccc2c(c1)c(CC(=O)O)c(C)n2C(=O)c1ccc(Cl)cc1 | 0.000509 |

----------
Conditions: in acetonitrile, 298.15 K
Each item that follows carries a reported solubility (mole fraction).
Readout Kind: solubility (mole fraction)

| Input Smiles | Readout Kind | Reported Measurement |
| --- | --- | --- |
| c1ccc2cc3cc4ccccc4cc3cc2c1 | solubility (mole fraction) | 7.97e-06 |
| c1cc2cccc3c4cccc5cccc(c(c1)c23)c54 | solubility (mole fraction) | 4.68e-05 |
| O=C(O)c1cccnc1Nc1cccc(C(F)(F)F)c1 | solubility (mole fraction) | 0.00131 |
| COc1ccc2c(c1)c(CC(=O)O)c(C)n2C(=O)c1ccc(Cl)cc1 | solubility (mole fraction) | 0.00239 |
| c1ccc2cc3ccccc3cc2c1 | solubility (mole fraction) | 0.000765 |
| c1ccc2c(c1)c1ccccc1n2-c1ccc(-c2ccc(-n3c4ccccc4c4ccccc43)cc2)cc1 | solubility (mole fraction) | 7.54e-06 |
| c1ccc(N(c2ccc(-c3ccc(N(c4ccccc4)c4cccc5ccccc45)cc3)cc2)c2cccc3ccccc23)cc1 | solubility (mole fraction) | 1.56e-06 |

----------
Details: in n-heptane, 298.15 K
Readout Kind: solubility (mole fraction)

| Input Smiles | Readout Kind | Reported Measurement |
| --- | --- | --- |
| COc1ccc2c(c1)c(CC(=O)O)c(C)n2C(=O)c1ccc(Cl)cc1 | solubility (mole fraction) | 6.13e-07 |

Taken from BigSolDB 2.1.
